# experimental-target: S1P1 (Homo sapiens, UniProt P21453)
# Sequence (P21453 whole entry): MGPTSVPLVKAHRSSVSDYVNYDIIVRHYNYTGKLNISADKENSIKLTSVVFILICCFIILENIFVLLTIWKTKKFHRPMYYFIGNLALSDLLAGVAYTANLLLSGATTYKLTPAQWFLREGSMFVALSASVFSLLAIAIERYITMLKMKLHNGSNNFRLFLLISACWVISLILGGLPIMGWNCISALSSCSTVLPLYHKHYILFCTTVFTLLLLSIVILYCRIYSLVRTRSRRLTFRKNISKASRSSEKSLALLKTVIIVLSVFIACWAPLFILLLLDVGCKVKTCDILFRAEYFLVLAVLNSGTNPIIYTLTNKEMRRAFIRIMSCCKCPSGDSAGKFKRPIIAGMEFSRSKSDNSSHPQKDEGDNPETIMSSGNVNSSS
# method: S1P1 overexpression cell activity by β-arrestin assay (U2OS-EDG1)
# run-conditions: U2OS-EDG1 cells
# Description: The following experiments were conducted to detect the activity of the compound on S1P1 overexpression cells by β-arrestin assay. [table] 3. […]
pIC50: −log10 of the molar value.
# binarize pIC50: threshold 9 inclusive, high side 1 (yes), low side 0 (no)

The following molecules have reported results that may help.
molecule	label
O=C(O)CCn1ccc2cc(OCc3ccc(C4CCCC4)c(C(F)(F)F)c3)cc(Cl)c21	1 (yes)
O=C(O)C[C@H]1CCc2c1[nH]c1ccc(OCc3ccc(C4CCCC4)c(C(F)(F)F)c3)cc21 [Etrasimod, reference compound]	0 (no)
O=C(O)Cn1ccc2cc(OCc3ccc(C4CCCC4)c(C(F)(F)F)c3)ccc21	0 (no)
CCc1cc(OCc2ccc(C3CCCC3)c(C(F)(F)F)c2)cc2ccn(CCC(=O)O)c12	0 (no)
Cc1cc(OCc2ccc(C3CCCC3)c(C(F)(F)F)c2)cc2ccn(CCC(=O)O)c12	1 (yes)

Now look at this one.
(Q) Threshold query (pIC50 >= 9) on O=C(O)CCCn1ccc2cc(OCc3ccc(C4CCCC4)c(C(F)(F)F)c3)cc(Cl)c21
(A) 1 (yes)
